System: ACHN
EXPERIMENT_SUMMARY: NCI tumour cell line growth inhibition, 48 h
Active and inactive are the calls of the source. Rule as the data show it: active = GI50 up to about 1.1 µM and inactive = higher.
READOUT: GI50

COMPOUND | GI50
Nc1c(C(=O)N/N=C/c2ccc(Cl)cc2)sc(=S)n1-c1ccccc1 | > 100 µM (inactive)
O=CC(I)=C(c1ccccc1)c1ccccc1 | 20.7 µM (inactive)
O=C(CCN1CCN(c2cccc(Cl)c2)CC1)N1CCc2c([nH]c3ccccc23)C1c1cccnc1 (stereo unspecified) | 4.78 µM (inactive)
Cc1ccc(NC(=O)CCC(=O)C(C#N)c2ccccc2)cc1C (stereo unspecified) | > 100 µM (inactive)

Query GI50 for Nc1nc(N)c2nc(CNc3ccc(C(=O)NC(CCC(=O)O)C(=O)O)cc3F)cnc2n1 (stereo unspecified)
< 0.01 µM (active)

Query GI50 for `CN(C)c1c(Cl)c(=O)oc2c1ccc1nc(-c3ccccc3)sc12`
> 100 µM (inactive)

Query GI50 for Fc1ccc(F)c(C2SCc3nc4ccccc4n32)c1 (stereo unspecified)
98.4 µM (inactive)

====

Test system: RXF 393
EXPERIMENT_SUMMARY: NCI tumour cell line growth inhibition, 48 h
Calls of active or inactive are those of the source. Cut-off read from the data, not from the text of the source: active = GI50 up to about 1.1 µM and inactive = higher.
Your response should consist of one outcome taken from TRUE = active, FALSE = inactive

# count of solved cases: 10
COMPOUND | CATEGORY_LABEL
COc1cc(/C=C2/C(=O)N(C(=O)c3ccccc3O)N=C2C)ccc1O | TRUE
CCOC(=O)CCN1C(=O)C(=O)N(c2ccc(OC)cc2)C1=S | FALSE
O=C(CC(=O)C(=O)CC(=O)OCc1ccccc1)OCc1ccccc1 | FALSE
CCOC(=O)C1=C(C(=O)c2ccc(C)cc2)C(c2cccc([N+](=O)[O-])c2)C(C(=O)c2ccc(C)cc2)=C(C(=O)OCC)N1 | FALSE
C=CCc1cccc2cc(C(=O)NCc3ccccc3)c(=N)oc12 | FALSE
CN1C(=O)CCC1(O)C1C=CC=CC1 (stereo unspecified) | FALSE
C=CCC1(Sc2ccccn2)Sc2ccc3ccccc3c2-c2c(ccc3ccccc23)S1 | FALSE
CC(C)(C)O/N=C/c1cc(NC(=S)c2ccccc2)ccc1Cl | FALSE
O=c1[nH]c(=O)n(C2CC(O)C(CO)O2)cc1Oc1ccccc1 (stereo unspecified) | FALSE
O=C(/C(=C(/Br)I)c1ccccc1)c1ccccc1 | FALSE

Please find the next compound below.
Answer briefly: the call reported for `CCCCNc1nc(O)c2[nH]cnc2n1` in this assay.
FALSE

====

System: PC-3
EXPERIMENT_SUMMARY: NCI tumour cell line growth inhibition, 48 h
Calls of active or inactive are those of the source. Rule as the data show it: active = GI50 up to about 1.1 µM and inactive = higher.
Reported GI50 values follow for various compounds

Query GI50 for `Cc1ccc(S(=O)(=O)NCCCSCCO)cc1`
30 µM (inactive)

Query GI50 for `Cc1c(C)c(S(=O)(=O)N(CCCN)OCCCN)c(C)c2c1OC(C)(C)CC2`
12 µM (inactive)

Query GI50 for `CC(C)[C@@H]1NC(=O)[C@@H]2N=C(O[C@H]2C)[C@H](C(C)C)NC(=O)C2N=C1O[C@H]2C`
> 100 µM (inactive)

Query GI50 for `O=CC(I)=C(c1ccccc1)c1ccccc1`
15.2 µM (inactive)

Query GI50 for `Nc1ccccc1C(=O)CCC1C(=O)NC(=S)NC1=O`
> 100 µM (inactive)

Query GI50 for `COc1ccc(/C=C2\N=C(c3ccccc3)OC2=O)cc1OC(C)=O`
31.1 µM (inactive)

Query GI50 for O=c1oc2ccccc2c(O)c1C(C/C(CCN1CCCC1)=N/O)c1ccccc1 (stereo unspecified)
> 100 µM (inactive)

Query GI50 for `Oc1ccc(-c2nc(-c3cccnc3)c(-c3ccc(Cl)cc3)[nH]2)cc1`
5.58 µM (inactive)

====

System: K562
EXPERIMENT_SUMMARY: NCI tumour cell line growth inhibition, 48 h
Active and inactive are the calls of the source. No stated cut-off is given here; in the data, active = GI50 up to about 1.1 µM and inactive = higher.
Reported GI50 values follow for various molecules

Consider the worked cases shown below.
MOLECULE | GI50
O=[N+]([O-])c1ccccc1S(=O)(=O)c1ccccc1 | > 100 µM (inactive)
O=C1OC2CCCC[C@@H]2C2C[C@]34CCCCC3[C@@H](C(=O)O4)C12 (stereo not given in full) | > 100 µM (inactive)
NNc1cnn(-c2ccccc2)c(=O)c1Cl | > 100 µM (inactive)
CCC1([N+](=O)[O-])CC2C=CC1C2 (stereo not given) | > 100 µM (inactive)
N=C(N)c1ccc(C(NC(=O)CNS(=O)(=O)c2ccc3ccccc3c2)P(=O)(Oc2ccccc2)Oc2ccccc2)cc1 (stereo not given) | 50 µM (inactive)

Attention now turns to another entry.
Query GI50 for `COc1ccc(CCNC2=CC(=O)c3ncccc3C2=O)cc1OC`
2.24 µM (inactive)

====

Test system: LOX IMVI
EXPERIMENT_SUMMARY: NCI tumour cell line growth inhibition, 48 h
The source made the active and inactive calls. No stated cut-off is given here; in the data, active = GI50 up to about 1.1 µM and inactive = higher.
Your response should consist of one outcome taken from 1 (yes) for active, 0 (no) for inactive

# count of solved cases: 4
MOLECULE | CATEGORY_LABEL
O=C(NCc1ccccc1)c1cc2ccccc2o/c1=N\c1ccccc1F | 0 (no)
CCOC(=O)C1=C(C)C2C3C(=O)OC(=O)C3C1(C)C1C(=O)OC(=O)C21 (stereo not drawn) | 0 (no)
CS/C(=N\c1ccc([N+](=O)[O-])cc1C#N)NC(=O)c1ccccc1 | 0 (no)
COc1cc(OC)c2c(=O)cc(-c3ccccc3F)[nH]c2c1 | 0 (no)

Answer briefly: the call reported for `C(CCCCc1nnc(N2CCOCC2)o1)CCCc1nnc(N2CCOCC2)o1` in this assay.
0 (no)

Answer briefly: the call reported for `Oc1cccc(/C=N/N=c2/[nH][nH]/c(=N/N=C/c3cccc(O)c3)c3ccccc23)c1` in this assay.
0 (no)

Answer briefly: the call reported for COC(=O)CCC1(NS(=O)(=O)c2ccc(C)cc2)CCC(C(C)(C)C)CC1 (stereo not drawn) in this assay.
0 (no)

Answer briefly: the call reported for `CC(=O)CC[N+](C)(C)C` in this assay.
0 (no)

Answer briefly: the call reported for `NCCNCCNCc1c2ccccc2c(CNCCNCCN)c2ccccc12` in this assay.
0 (no)

Answer briefly: the call reported for N#CC(c1ccccc1)N(CCc1ccccc1)C(=O)c1ccccc1 (stereo not drawn) in this assay.
0 (no)

Answer briefly: the call reported for Nc1nc(N)c2nc(CNc3ccc(C(=O)NC(CCC(=O)O)C(=O)O)cc3F)cnc2n1 (stereo not drawn) in this assay.
1 (yes)

Answer briefly: the call reported for COc1cc(C2c3cc4c(cc3OC(C)(N3CCCC3)C2C)OCO4)cc(OC)c1OC (stereo not drawn) in this assay.
1 (yes)

Answer briefly: the call reported for `CCOC(=O)c1c(Br)c(-c2ccc(OC)cc2)c(Br)n1C` in this assay.
0 (no)

Answer briefly: the call reported for CCOC(=O)N1CC2(C)C=CC1C(C(=O)OC)C2 (stereo not drawn) in this assay.
0 (no)

====

Test system: SW-620
EXPERIMENT_SUMMARY: NCI tumour cell line growth inhibition, 48 h
Active and inactive are the calls of the source. Cut-off read from the data, not from the text of the source: active = GI50 up to about 1.1 µM and inactive = higher.
Reported GI50 values follow for various compounds

COMPOUND | MEASURED_ON | MEASURED_VALUE
O=C(O)C(Cc1ccccc1)N1C(=O)N/C(=C\c2ccc(F)cc2)C1=O (stereo not given) | SW-620 | > 100 µM (inactive)
CC(=O)N/C(=C\c1ccc(/C=C(\NC(C)=O)c2nc3cc(Cl)ccc3[nH]2)cc1)c1nc2ccccc2[nH]1 | SW-620 | > 100 µM (inactive)
O=[N+]([O-])c1nccn1CC(O)CN1CC1 (stereo not given) | SW-620 | 63.8 µM (inactive)
COc1cc2c(cc1OC)C(N(C)C)C(c1ccccc1)=C2Cl (stereo not given) | SW-620 | 16.2 µM (inactive)

Query GI50 for COC(=O)C1(C(C)C)CCc2c(OC)ccc(OC)c2C1=O (stereo not given)
> 100 µM (inactive)

====

Test system: OVCAR-3
EXPERIMENT_SUMMARY: NCI tumour cell line growth inhibition, 48 h
Activity calls are given as the source filed them. Rule as the data show it: active = GI50 up to about 1.1 µM and inactive = higher.
READOUT: GI50

MOLECULE | READOUT | MEASURED_VALUE
COC(=O)CCC(=O)Nc1ccc(Cl)cc1C | GI50 | 43.9 µM (inactive)
Oc1ccc(-c2nc(-c3cccnc3)c(-c3ccc(Cl)cc3)[nH]2)cc1 | GI50 | 12.5 µM (inactive)
CC(C)(C)O/N=C/c1cc(NC(=S)c2ccccc2)ccc1Cl | GI50 | 16.3 µM (inactive)
CN(CCN(C)C(=O)CCn1ccc(=O)[nH]c1=O)C(=O)CCn1ccc(=O)[nH]c1=O | GI50 | > 100 µM (inactive)
COc1cc(OC)c2ssc3c(OC)cc(OC)c4ssc1c2-c43 | GI50 | > 100 µM (inactive)
CC(=O)C1=C(O)C(N)C2Cc3c(c(O)c4c(O)c(C)ccc4c3C)C(=O)C2(O)C1=O (centres undefined) | GI50 | 1.3 µM (inactive)
CCCCNc1nc(O)c2[nH]cnc2n1 | GI50 | > 100 µM (inactive)
COc1c2cc(C(C)(C)C)cc1Cc1cccc(c1OCc1cccc([N+](=O)[O-])c1)Cc1cc(C(C)(C)C)cc(c1OC)Cc1cccc(c1OCc1cccc([N+](=O)[O-])c1)Cc1cc(C(C)(C)C)cc(c1OC)Cc1cccc(c1OCc1cccc([N+](=O)[O-])c1)C2 | GI50 | > 50 µM (inactive)

Query GI50 for `COc1cc(OC)c2c(=O)cc(-c3ccccc3F)[nH]c2c1`
57 µM (inactive)
